- Organism: Rattus norvegicus
- protocol notes: DrugMatrix - Regimen: Daily Repeat
- Type: toxicity, organism-based, Sprague-Dawley
- Set-up: regimen Daily Repeat, gender Male, age 6-8 weeks
- cond: in vivo, po, 0 mg/kg, 120 h, tissue Plasma, route oral GAVAGE, dose level Control, time 5 day, vehicle .5 % CMC
metric: CHOLESTEROL
Enter the number, and then the unit.

Study these solved cases before continuing.
{"molecule": "CO[C@H]1/C=C/O[C@@]2(C)Oc3c(C)c(O)c4c(c3C2=O)C2=NC3(CCN(CC(C)C)CC3)NC2=C(NC(=O)/C(C)=C\\C=C\\[C@H](C)[C@H](O)[C@@H](C)[C@@H](O)[C@@H](C)[C@H](OC(C)=O)[C@@H]1C)C4=O", "result": "71 mg/dL"}
{"molecule": "CC[C@@H](CO)NCCN[C@@H](CC)CO", "result": "67.83 mg/dL"}
{"molecule": "O=C1CCC(N2C(=O)c3ccccc3C2=O)C(=O)N1 (configuration not stated) [THALIDOMIDE]", "result": "66.33 mg/dL"}
{"molecule": "CC(=O)CC(c1ccccc1)c1c(O)c2ccccc2oc1=O (configuration not stated)", "result": "71.5 mg/dL"}
{"molecule": "C#C[C@]1(O)CC[C@H]2[C@@H]3CCc4cc(OC)ccc4[C@H]3CC[C@@]21C", "result": "71 mg/dL"}
{"molecule": "N=C(N)NC(=O)c1nc(Cl)c(N)nc1N [AMILORIDE]", "result": "67.83 mg/dL"}

Now examine the next entry.
Query: I would be grateful if you could share the reported CHOLESTEROL for CC(C)[C@H]1CC[C@H](C(=O)N[C@H](Cc2ccccc2)C(=O)O)CC1 [NATEGLINIDE] .
Response: 63.83 mg/dL

---

- Organism: Rattus norvegicus
- protocol notes: DrugMatrix - Regimen: Daily Repeat
- Assay type: toxicity, organism-based, Sprague-Dawley
- Set-up: regimen Daily Repeat, gender Male, age 6-8 weeks
- cond: in vivo, ip, 40 mg/kg, 120 h, tissue Blood, route intraperitoneal, dose level High, time 5 day, vehicle 100 % SALINE
metric: ABSOLUTE MONOCYTE (cells/µL)
Report the value in cells/µL with no unit label.

Query: I would be grateful if you could share the reported ABSOLUTE MONOCYTE for CCN[C@@H]1C[C@H](N)[C@@H](O[C@H]2OC(CN)=CC[C@H]2N)[C@H](O)[C@H]1O[C@H]1OC[C@](C)(O)[C@H](NC)[C@H]1O .
Response: 270

---

- Species on record: Rattus norvegicus
- protocol notes: DrugMatrix - Regimen: Daily Repeat
- Assay type: toxicity, organism-based, Sprague-Dawley
- Parameters: regimen Daily Repeat, gender Male, age 6-8 weeks
- cond: in vivo, ip, 0 mg/kg, […], tissue Blood, route intraperitoneal, dose level Control, time 28 day, vehicle 100 % SALINE
metric: ABSOLUTE SEGMENTED NEUTROPHIL (cells/µL)
Report the value in cells/µL with no unit label.

Query: I would be grateful if you could share the reported ABSOLUTE SEGMENTED NEUTROPHIL for CCN[C@@H]1C[C@H](N)[C@@H](O[C@H]2OC(CN)=CC[C@H]2N)[C@H](O)[C@H]1O[C@H]1OC[C@](C)(O)[C@H](NC)[C@H]1O .
Response: 1560
